Measured values drawn from patent US9399626B2 for this set.

Listing of recorded MPO kinact/Ki by entry.
target: MPO (purified from human polynuclear leukocytes) (Homo sapiens, UniProt P05164); construct: purified from human polynuclear leukocytes; purchased Calbiochem/EMD Biosciences; host or cells: human polynuclear leukocytes (natural source); test: MPO Amplex Red Activity Assay; assay type: biochemical; settings: Table 1, 2 μM H2O2, pH 7.4
Sequence (P05164 279-745 limits assumed): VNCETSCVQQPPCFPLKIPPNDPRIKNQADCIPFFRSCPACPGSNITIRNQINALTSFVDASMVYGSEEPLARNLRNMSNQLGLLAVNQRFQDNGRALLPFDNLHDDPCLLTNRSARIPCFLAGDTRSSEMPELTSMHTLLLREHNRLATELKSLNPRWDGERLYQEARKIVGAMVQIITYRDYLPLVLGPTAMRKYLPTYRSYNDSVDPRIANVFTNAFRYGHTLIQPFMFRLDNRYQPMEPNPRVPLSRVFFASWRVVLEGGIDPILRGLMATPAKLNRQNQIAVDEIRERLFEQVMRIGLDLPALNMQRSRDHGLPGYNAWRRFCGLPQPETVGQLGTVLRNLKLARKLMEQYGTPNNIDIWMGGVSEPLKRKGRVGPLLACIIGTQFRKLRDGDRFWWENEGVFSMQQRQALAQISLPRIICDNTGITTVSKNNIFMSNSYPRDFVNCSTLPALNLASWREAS
Sequence (P05164 165-273 limits assumed): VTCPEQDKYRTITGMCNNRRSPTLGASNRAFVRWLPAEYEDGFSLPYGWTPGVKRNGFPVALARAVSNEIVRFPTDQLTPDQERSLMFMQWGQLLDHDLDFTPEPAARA
Where a name gives a salt, the structure may show the parent alone.
Metric: MPO kinact/Ki

COc1cc(OC)c(-c2cc(=O)[nH]c(=S)n2CCCN)cc1F [Example 108, hydrochloride]: 5800 1/s per M
COc1ccc(-c2cc(=O)[nH]c(=S)n2CCCNCCO)c(OC)c1: 1520 1/s per M
COc1cc(F)ccc1-c1cc(=O)[nH]c(=S)n1CC(N)=O: 4770 1/s per M
COc1ncc(C)cc1-c1cc(=O)[nH]c(=S)n1CCO: 8970 1/s per M
COc1ccc(F)cc1-c1cc(=O)[nH]c(=S)n1CC(N)=O: 8480 1/s per M
NCCn1c(-c2cccc3[nH]ccc23)cc(=O)[nH]c1=S [Example 142, trifluoroacetate]: 4210 1/s per M
COCCn1c(-c2cccc3ccccc23)cc(=O)[nH]c1=S: 7810 1/s per M
COc1cc(OC)c(-c2cc(=O)[nH]c(=S)n2CC(N)=O)cc1OC: 4610 1/s per M
COCCn1c(-c2cc(C)ccc2OC)cc(=O)[nH]c1=S: 17100 1/s per M
COc1ccc(OC)c(-c2cc(=O)[nH]c(=S)n2CCO)c1: 17800 1/s per M
CCOC(=O)Cn1c(-c2cc(OC)c(OC)cc2OC)cc(=O)[nH]c1=S: 2890 1/s per M
COc1ccc(-c2cc(=O)[nH]c(=S)n2CCO)c2ccccc12: 22800 1/s per M
COCCn1c(-c2ccc3c(c2)OCO3)cc(=O)[nH]c1=S: 3160 1/s per M
COc1ccc(Cl)cc1-c1cc(=O)[nH]c(=S)n1CCCNC(N)=O: 6690 1/s per M
NCCCn1c(-c2ccccc2-n2nccn2)cc(=O)[nH]c1=S [Example 98, hydrochloride]: 1870 1/s per M
COc1ccc(-c2cc(=O)[nH]c(=S)n2CCOC(C)C)c(OC)c1: 6280 1/s per M
COc1ccc(-c2cc(=O)[nH]c(=S)n2CC(=O)NCCN)c(OC)c1 [Example 241, hydrochloride]: 7060 1/s per M
COc1ccc(-c2cc(=O)[nH]c(=S)n2CCNC2=NCCN2)c(OC)c1: 7510 1/s per M

---

biological target: MPO (purified from human polynuclear leukocytes) (Homo sapiens); construct: purified from human polynuclear leukocytes; purchased Calbiochem/EMD Biosciences; host or cells: human polynuclear leukocytes (natural source); assay: MPO Amplex Red Activity Assay; format: biochemical; conditions: Table 1, 2 μM H2O2, pH 7.4
Where a name gives a salt, the structure may show the parent alone.
Metric: MPO kinact/Ki

COCCn1c(-c2csc3ccccc23)cc(=O)[nH]c1=S [Example 324]: 11300 1/s per M
COc1cc(OC)cc(-c2cc(=O)[nH]c(=S)n2CCO)c1 [Example 54]: 7070 1/s per M
COCCc1ccccc1-c1cc(=O)[nH]c(=S)n1CCO [Example 271]: 2010 1/s per M
COc1ccc(-c2cc(=O)[nH]c(=S)n2CCCN)cc1OC [Example 82, hydrochloride]: 3390 1/s per M
COc1ccc(OC)c(-c2cc(=O)[nH]c(=S)n2CCCN=C(N)N)c1 [Example 131, trifluoroacetate]: 14500 1/s per M
COc1cccc(OC)c1-c1cc(=O)[nH]c(=S)n1C [Example 157]: 7320 1/s per M
COc1cc(OC)cc(-c2cc(=O)[nH]c(=S)n2CC(N)=O)c1 [Example 86]: 3960 1/s per M
NCCn1c(-c2ccc3c(c2)CCO3)cc(=O)[nH]c1=S [Example 14, hydrochloride]: 5310 1/s per M
COc1ccc(C)cc1-c1cc(=O)[nH]c(=S)n1CCO [Example 161]: 29600 1/s per M
COc1ccc(C)cc1-c1cc(=O)[nH]c(=S)n1CC(N)=O [Example 164]: 14900 1/s per M
COc1cc(F)ccc1-c1cc(=O)[nH]c(=S)n1CCCN [Example 57, hydrochloride]: 13100 1/s per M
COCCn1c(-c2ccc(C)nc2OC)cc(=O)[nH]c1=S [Example 50]: 2610 1/s per M
CCOC(=O)CCn1c(-c2ccc(OC)cc2OC)cc(=O)[nH]c1=S [Example 240]: 7070 1/s per M
COc1cc(OC)c(-c2cc(=O)[nH]c(=S)n2CC(N)=O)cc1F [Example 107]: 1280 1/s per M
COc1ccc(-c2cc(=O)[nH]c(=S)n2CCCO)c(OC)c1 [Example 181]: 7160 1/s per M
COc1cc(-c2cc(=O)[nH]c(=S)n2CCN)c(OC)cc1C [Example 84, hydrochloride]: 6630 1/s per M
COc1cccc(-c2cc(=O)[nH]c(=S)n2CCN)c1 [Example 264, hydrochloride]: 3620 1/s per M
COCCn1c(-c2c(OC)cccc2OC)cc(=O)[nH]c1=S [Example 180]: 6960 1/s per M
COCCn1c(-c2ccc(OC)nc2)cc(=O)[nH]c1=S [Example 295]: 793 1/s per M
